Provenance of the data: the array DNA melting data of Ke et al. (doi:10.1101/2024.01.08.574731)

Assay: folding enthalpy; higher = less favourable; fluorescence melt of hairpins on a sequencing array, two-state fit
Conditions: sodium 0.088 M
Assign class by folding enthalpy: not lower than -30 kcal/mol means Fulfilled; lower than -30 kcal/mol means Not fulfilled.

1) GCGTCAACGAAAGTTCGC (((..(((....))))))    Fulfilled
2) CGATCGCGGAAACGCTCG (((..(((....))))))    Fulfilled
3) GAGTGGGAAACCACTC ((((((....))))))    Not fulfilled

Request: Is folding enthalpy for GATCATCATATGATC ((((((...)))))) at or above -30 kcal/mol?
Response: Not fulfilled

Request: Is folding enthalpy for GAGGACCCGAAAGGGCTC (((..(((....)))))) at or above -30 kcal/mol?
Response: Fulfilled

Request: Is folding enthalpy for GCGTCCGAAAGGATTCGC ((((((....)))..))) at or above -30 kcal/mol?
Response: Fulfilled

Request: Is folding enthalpy for GGAACGGCGAAAGCCTCC (((..(((....)))))) at or above -30 kcal/mol?
Response: Fulfilled

Request: Is folding enthalpy for GCTGCTCGAAAGAGAAGC (((.(((....))).))) at or above -30 kcal/mol?
Response: Not fulfilled

Request: Is folding enthalpy for GAGTTCCGAAAGGACCTC (((.(((....))).))) at or above -30 kcal/mol?
Response: Fulfilled
